Cited source: patent US20180230200A1

# system-name: T1, UL131A expressed from MVA in BHK-21 cells (human cytomegalovirus, UniProt F5HET4 19-129)
# T1 construct: whole, on cells
# T1 sequence (F5HET4 19-129 limits assumed): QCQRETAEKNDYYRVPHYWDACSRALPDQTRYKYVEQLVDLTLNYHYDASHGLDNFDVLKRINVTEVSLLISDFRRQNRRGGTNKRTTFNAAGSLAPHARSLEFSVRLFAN
# measurement-notes: intracellular FC, MVA-infected BHK-21
reported-endpoint: binding result

1. 12E2 (antibody, V domains shown, also called NAb 12E2) VH: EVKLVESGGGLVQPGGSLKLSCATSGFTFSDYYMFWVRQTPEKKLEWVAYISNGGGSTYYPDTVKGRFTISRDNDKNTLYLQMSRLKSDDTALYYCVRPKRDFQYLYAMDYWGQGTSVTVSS VL: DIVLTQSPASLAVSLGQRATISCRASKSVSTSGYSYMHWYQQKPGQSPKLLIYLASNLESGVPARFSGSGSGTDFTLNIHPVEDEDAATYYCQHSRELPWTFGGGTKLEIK
no binding
2. 2-80 (antibody, V domains shown, also called NAb 2-80) VH: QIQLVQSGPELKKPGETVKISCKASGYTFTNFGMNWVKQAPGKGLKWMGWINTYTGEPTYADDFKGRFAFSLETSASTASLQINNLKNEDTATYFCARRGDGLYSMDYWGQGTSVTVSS VL: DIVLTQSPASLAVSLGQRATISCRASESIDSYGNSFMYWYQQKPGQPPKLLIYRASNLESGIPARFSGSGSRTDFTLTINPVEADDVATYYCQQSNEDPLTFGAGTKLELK
no binding
